Tested on: human platelet rich plasma
Assay: Inhibition of human platelet aggregation, "Born"-method in single cuvettes (ADP-induced, platelet rich plasma)
Type: cell-based
Conditions: Platelet, 0.1 h, human PRP, aggregation induced by ADP, measured over 6 minutes at 37° C.
pIC50: −log10 of the molar value.
READOUT_NAME: pIC50

Quick check: pIC50 on human platelet rich plasma, item CCOC(=O)N1CCN(C(=O)[C@H](CCC(=O)O)NC(=O)c2cc(OCC(=O)N3CCC(S(C)(=O)=O)C3)c3ccc(C)cc3n2)CC1 (some centres unmarked) ? 6.80

Also CCOC(=O)[C@@H]1C[C@@H](O)CN1C(=O)COc1cc(C(=O)N[C@@H](CCC(=O)O)C(=O)N2CCN(C(=O)OCC)CC2)nc2ccccc12 ? 6.72

// same read-out, input: CCCCOC(=O)N1CCN(C(=O)[C@H](CCC(=O)O)NC(=O)c2cc(OCC(=O)N3CCC[C@H]3c3ccccc3)c3ccc(C)cc3n2)CC1 7.10

Ok, now CCOC(=O)N1CCN(C(=O)[C@H](CCC(=O)O)NC(=O)c2cc(O[C@H](C)C(=O)N3CCC[C@H]3C(=O)NC3CCCC3)c3ccc(C)cc3n2)CC1 7.52

Proceed to CCOC(=O)N1CCN(C(=O)[C@H](CCC(=O)O)NC(=O)c2cc(OCC(=O)N3CC[C@H](CO)C3)c3ccc(C)cc3n2)CC1 6.23

A. CCOC(=O)N1CCN(C(=O)[C@H](CCC(=O)O)NC(=O)c2cc(OCC(=O)N3CC(O)CC3C(=O)OC)c3ccccc3n2)CC1 (some centres unmarked)
B. CCCCOC(=O)N1CCN(C(=O)CNC(=O)c2cc(OCC(=O)N3C[C@H](O)C[C@H]3C(=O)NC3CCC3)c3ccc(C)cc3n2)CC1
C. CCCCOC(=O)N1CCN(C(=O)CNC(=O)c2cc(OCC(=O)N3CCC[C@H]3C(=O)NC3CCC3)c3ccc(C)cc3n2)CC1
D. CCCCOC(=O)N1CCN(C(=O)[C@H](CCc2nnn(C)n2)NC(=O)c2cc(OCC(=O)N3CCC[C@H]3C(=O)NC3CCC3)c3ccc(C)cc3n2)CC1
Order the 4 compounds from highest to lowest pIC50. Returns: the labels listed in the requested order. B, C, D, A
(B: 9.22, C: 7.52, D: 7.11, A: 6.51)

a. CCOC(=O)N1CCN(C(=O)[C@H](CCC(=O)O)NC(=O)c2cc(OCC(=O)N3CCC[C@H]3C(=O)NC3CC3)c3ccc(C)cc3n2)CC1
b. CCOC(=O)N1CCN(C(=O)[C@H](CCC(=O)O)NC(=O)c2cc(OCC(=O)N3CCCC3c3ccco3)c3ccccc3n2)CC1 (some centres unmarked)
c. CCCCOC(=O)N1CCN(C(=O)CNC(=O)c2cc(OCC(=O)N3CCC[C@H]3C(=O)NC3CCCC3)c3ccc(C)cc3n2)CC1
List from greatest to least pIC50. Write the labels out in the order the request specifies. c, a, b
(c: 7.70, a: 6.74, b: 6.54)

1. CCOC(=O)N1CCN(C(=O)[C@H](CCC(=O)O)NC(=O)c2cc(OCC(=O)N3CCC[C@H]3C(=O)O)c3ccc(C)cc3n2)CC1
2. CCCCOC(=O)N1CCN(C(=O)[C@H](CCOC)NC(=O)c2cc(OCC(=O)N3CCC[C@H]3C(=O)NC3CCC3)c3ccc(C)cc3n2)CC1
Which has the smaller recorded pIC50, 1 or 2 ? In your reply, give the label of the chosen option. 1

Where do the numbers come from? From patent US8669266B2.
